sequences and their reported soluble fraction (log2)
- protocolNotes: soluble fraction after stress (log2 fold change); higher = more stays soluble; pooled small domains, quantitative proteomics;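 further: 20 min heating vs room temperature control held 20 min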
- testContext: stress: 75 degC
Please reply with the number alone, leaving off any unit.

# biosequence, assayResult
rows = [
    ("HMNVQGFVFDLAEPLDKVPSIEGFPLKLEDPLTLVAAVNKDRSINALFAELSKLNIKIKSMRNE", -0.0601),
    ("HMFDENVKLIENEYDVSIISRGSELKVMGDVENVDKAARALRSMLAMINKGESLTEQNVRYVLTLVNEGNE", -0.735),
    ("HMNEIALETAIEDVESFIQMQNRNLAFSIDEDTDRAVVTVRDSDSGDVIRQIPSEEVLALAERIQDLQQD", 0.0361),
]

We next turn to a different sequence, shown below.
Problem: Name the recorded soluble fraction (log2) for HMKQVNVVSVIGQSEANAKTTLTGLGLKVNVAYEEDTSKADGIVLKQSLEGGKTVNEGTTITITVNKIA .
Result: 0.579
